Test system: HIV-1LAI
ASSAY COMMENT: HIV-1 replication in PHA-stimulated peripheral blood mononuclear cells
Type: cell-based
REPORTED CONDITIONS: Human immunodeficiency virus 1, PBMC, read-out: HIV-1 in PBM cells EC90
READOUT KIND: EC90 (nM)
Give your result in nM as a bare value.

>>> df
                                   molecule  readout_kind  number
0  CCN(CC)CCCC(C)Nc1ccnc2cc(Cl)ccc12 (centres unmarked) [Chloroquine]          EC90   21600
1  Nc1ccn([C@@H]2CS[C@H](CO)O2)c(=O)n1 [Lamivudine (3TC), Lamivudine]          EC90     360
2  CCC[C@@]1(CCc2ccccc2)CC(O)=C([C@H](CC)c2cccc(NS(=O)(=O)c3ccc(C(F)(F)F)cn3)c2)C(=O)O1 [Tipranavir]          EC90     170
3  Cc1cn([C@H]2C[C@H](F)[C@@H](CO)O2)c(=O)[nH]c1=O [3'-Fluoro-3'-deoxythymidine (FLT), 3'-Fluoro-3'-deoxythymidine]          EC90       5
4  CC(C)CN(C[C@@H](O)[C@H](Cc1ccccc1)NC(=O)O[C@H]1CO[C@H]2OCC[C@H]21)S(=O)(=O)c1ccc(N)cc1 [Darunavir]          EC90     6.5
5  C=C1[C@H](CO)[C@@H](O)C[C@@H]1n1cnc2c(=O)[nH]c(N)nc21 [Entecavir (ETV), Entecavir]          EC90   16300
6  Cc1c(O)cccc1C(=O)N[C@@H](CSc1ccccc1)[C@H](O)CN1C[C@H]2CCCC[C@H]2C[C@H]1C(=O)NC(C)(C)C [Nelfinavir]          EC90      67
7  C[C@]12CC[C@H](O)CC1=CC[C@@H]1[C@@H]2CC[C@]2(C)C(=O)CC[C@@H]12 [Dehydroepiandrosterone (DHEA), Dehydroepiandrosterone]          EC90   71200
8  CC(C)c1nc(CN(C)C(=O)N[C@H](C(=O)N[C@@H](Cc2ccccc2)C[C@H](O)[C@H](Cc2ccccc2)NC(=O)OCc2cncs2)C(C)C)cs1 [Ritonavir]          EC90     400
9  CC(C)CN(C[C@@H](O)[C@H](Cc1ccccc1)NC(=O)O[C@H]1CCOC1)S(=O)(=O)c1ccc(N)cc1 [Amprenavir]          EC90     100

We next turn to a different molecule, shown below.
[ask] # query: EC90 of entry O=c1[nH]c(=O)n([C@H]2C[C@H](O)[C@@H](CO)O2)cc1I [5-Iodo-2'-deoxyuridine (IdUrd), 5-Iodo-2'-deoxyuridine]
[reply] 38900
